B1: IQUB (parent)
chain: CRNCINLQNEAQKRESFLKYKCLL

Variants of: B1
Assay: protein stability index of a GFP-peptide fusion (GPS, HEK-293T) (PSI 1-6); higher = more stable;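 also: lentivirally expressed fusions sorted by FACS into six bins by GFP to DsRed ratio, PSI derived from sequencing read proportions per bin multiplied by bin number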
Conditions: c terminus: a fixed tail appended
ASSAY_ENDPOINT: protein stability index
// no unit, no text: just the number

Here are 4 variants together with their reported answers.
K13P | 2.02
L7S | 2.29
L24A | 2.56
F17Q | 1.5

Exam item: Would you mind telling me what protein stability index value was observed for F17S ?
Marked response: 2.08
